The origin of these recorded values is PubChem BioAssay AID1996.

- condition.summary: buffer; pH 7.4; 200.0 µM
solubility kinetic values for the compounds below.
reported.endpoint: solubility kinetic (µg/mL)

given.smiles	unit.text	comparator	endpoint.result
COC(=O)c1ccc(OCC(=O)N2CCCc3ccccc32)cc1	µg/mL	=	45
COc1ccc(NS(=O)(=O)c2ccc(O)c([N+](=O)[O-])c2)cc1S(=O)(=O)N1CCCCC1	µg/mL	>	70.7
Nc1cncc(C(=O)O)c1	µg/mL	>	20.7
CN(C(=O)c1ccc2nc(N)sc2c1)c1ccccc1	µg/mL	=	40.8
O=C(Nc1ccc(F)cc1F)N1CCCN(c2ccc(C(F)(F)F)cn2)CC1	µg/mL	=	7.3
COc1ccc(-n2c(SCC(N)=O)nnc2-c2ccco2)cc1	µg/mL	>	49.6
O=C(CCCCCN1C(=O)c2ccccc2C1=O)Nc1cccc(O)c1	µg/mL	=	38.4
O=c1cc[nH]c2ccc([N+](=O)[O-])cc12	µg/mL	>	28.5
Cn1c(NC2CCCCC2)cc(=O)n(C)c1=O	µg/mL	>	35.6
COc1cccc(N2CCN(C(=O)c3cc4ccc(OC)cc4[nH]3)CC2)c1	µg/mL	=	1.6
Cc1oc2ccccc2c1CC(=O)NCCCN(C)C	µg/mL	>	41.2
CC1=CC2=NC(=O)/C(=C/c3cccs3)C(=N)N2O1	µg/mL	=	2.8
CCc1noc(C)c1C(=O)OCC(=O)NCc1ccc(Cl)cc1	µg/mL	=	8.4
